All figures here come from PubChem BioAssay.

# Procedure Summary: blockers of cytochrome c efflux from mitochondria – biochemical, purified mitochondria (AID 1603);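 note: mouse liver mitochondria challenged with calcium chloride; signal normalized to the plate average as 100%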
# Test Settings: stronger effect = lower value
We begin with a simple list: items and their reported cytochrome c release ratio.
Please give the numeric answer without any surrounding text.

Compound: NC(=O)NO
Quantitative Result: 0.82
//
Compound: CN(C)c1ccc(C(=C2C=CC(=[N+](C)C)C=C2)c2ccc(N(C)C)cc2)cc1
Quantitative Result: 1.35
//
Compound: Nc1ccc(S(=O)(=O)Nc2ccccn2)cc1
Quantitative Result: 0.88

Query :: Please report cytochrome c release ratio for the following compound: `CN(C)CCC=C1c2ccccc2C=Cc2ccccc21`
Result :: 1.17

Query :: Please report cytochrome c release ratio for the following compound: `Cn1cnc2c1c(=O)[nH]c(=O)n2C`
Result :: 0.76

Query :: Please report cytochrome c release ratio for the following compound: Clc1ccc(C(c2ccccc2Cl)C(Cl)Cl)cc1 (stereo not drawn)
Result :: 3.7

Query :: Please report cytochrome c release ratio for the following compound: `CNC[C@H](O)c1cccc(O)c1`
Result :: 0.84

Query :: Please report cytochrome c release ratio for the following compound: `CCCCN(CCCC)CCCOC(=O)c1ccc(N)cc1`
Result :: 0.76

Query :: Please report cytochrome c release ratio for the following compound: `CCn1cc(C(=O)O)c(=O)c2cc(F)c(N3CCNCC3)nc21`
Result :: 0.92

Query :: Please report cytochrome c release ratio for the following compound: `COC(=O)Nc1nc2ccc(Sc3ccccc3)cc2[nH]1`
Result :: 0.87
